TGI overview
- Tested on: OVCAR-3 ovarian
- assay-details: NCI tumour cell line growth inhibition, 48 h
measurement-kind: TGI

> print(dat)
                                   compound  reported.measurement
1   Nc1c(C(=O)Nc2ccccn2)sc2nc3c(cc12)CCCCC3               > 50 µM
2  CC(C)(C)N/N=C(\C(=O)Nc1ccc([N+](=O)[O-])cc1[N+](=O)[O-])c1nc2ccc([N+](=O)[O-])cc2[nH]c1=O              > 100 µM
3  CC1=C[C@H](O)[C@@]2(C)[C@@H]([C@@H]1C)[C@H]1CC[C@@H]3[C@@]4(C)CC[C@H](O)C(C)(C)[C@@H]4CC[C@@]3(C)[C@]1(C)C[C@@H]2O               31.4 µM
4  COC1=C(OC)C23CCc4ccc(OC)c(O)c4C2(CCN3)CC1=O (centres undefined)              > 100 µM
5  CCC1(O)C(=O)OCc2c1cc1n(c2=O)Cc2cc3ccc(CO)cc3nc2-1 (centres undefined)               24.4 µM
6  CC(=O)/C=C\C1CC2C=CC1C2 (centres undefined)              > 100 µM
7  O=[N+]([O-])c1cccc(-c2ncnc(-c3cccc([N+](=O)[O-])c3)n2)c1              > 100 µM
8  CC1SC(c2ccc(Cl)c(Cl)c2)N(NC(=O)C(O)c2ccccc2)C1=O (centres undefined)               77.6 µM
9  Cn1cc(C2=C(c3c4n(c5ccccc35)CCN(C(N)=S)C4)C(=O)NC2=O)c2ccccc21               7.36 µM

* * *

- System: SF-268 CNS
- assay-details: NCI tumour cell line growth inhibition, 48 h; in the data active = GI50 below about 0.43 µM; inactive = the rest
Classes used: class 1 for active, class 0 for inactive

> print(dat)
                                   molecule  assigned.category
1  CC1SC(c2ccc(Cl)c(Cl)c2)N(NC(=O)C(O)c2ccccc2)C1=O (stereo not drawn)            class 0
2      COc1cccc2cc(N(C)c3ncnc4ccccc34)ccc12            class 1
3  Cn1cc(C2=C(c3c4n(c5ccccc35)CCN(C(N)=S)C4)C(=O)NC2=O)c2ccccc21            class 0

* * *

TGI overview
- Tested on: CAKI-1 renal
- assay-details: NCI tumour cell line growth inhibition, 48 h
measurement-kind: TGI

> print(dat)
                                    compound  reported.measurement
 1      CC(C)(C)c1ccc2c(c1)C(=O)c1ccccc1C2=O              > 100 µM
 2        O=C(CC(Cl)(Cl)C(Cl)(Cl)Cl)c1ccccc1               4.39 µM
 3                    Cn1nc(N)nc1N=S(C)(C)=N              > 100 µM
 4  O=C(Nc1cccc(Cl)c1)Nc1cc2ncncc2cc1OCc1cccc(F)c1              > 100 µM
 5            COc1ccccc1-n1c(C)nc2ccccc2c1=O              > 100 µM
 6         ClC1=C(Cl)C(Cl)=C(Cl)C1=Cc1ccccc1               1.13 µM
 7  CCC(CN(C)C)C(=O)c1ccco1 (configuration not stated)              > 100 µM
 8                   COCOc1cc(OC)ccc1C/C=N/O              > 100 µM
 9  [N-]=[N+]=Nc1ccc2c(c1)Sc1ccccc1N2CCCCN1CCN(Cc2ccc(C(=O)c3ccccc3)cc2)CC1             > 65.4 µM
10          N#C/C(=C\c1c(Cl)cccc1Cl)c1ccccc1              > 100 µM
11        FC(F)(F)CNc1nccc(-c2cnn3ncccc23)n1               > 25 µM
12  CCOc1ccc2nc3cc(N=Nc4ccc(N)nc4N)ccc3c(N)c2c1              > 100 µM

* * *

GI50 overview
- Test system: PC-3 prostate
- assay-details: NCI tumour cell line growth inhibition, 48 h
measurement-kind: GI50

> print(dat)
                                   compound  reported.measurement
1   Nc1c(C(=O)Nc2ccccn2)sc2nc3c(cc12)CCCCC3               2.59 µM
2  COc1cc2c(cc1OCCCNC(=O)/C=C1/C[C@H]3C=Nc4cc(OCc5ccccc5)c(OC)cc4C(=O)N3C1)NC(=O)[C@@H]1CCCN1C2=O               77.3 µM
3  CC(=O)OC1Oc2ccc(C)cc2-c2oc(=O)c(-c3cc4ccccc4oc3=O)cc21 (configuration not stated)               2.13 µM
4  CCN(CC)c1ccc2c(cc1=O)[C@@H](NC(C)=O)CCc1cc(OC)c(OC)c(OC)c1-2              0.366 µM
5  Cn1c(-c2c(N)n(Cc3ccc(C(F)(F)F)cc3)c3nc(C#N)c(C#N)nc23)nc2ccccc21               6.95 µM
6  CCC(=C/[C@H](C)C/C=C/C(C)=C/[C@@H](C)C(=O)[C@@H](C)[C@H](O)[C@@H](C)CC)/C=C/[C@@H]1OC(=O)C=C[C@@H]1C            < 0.005 µM
7  Cn1cc(C2=C(c3c4n(c5ccccc35)CCN(C(N)=S)C4)C(=O)NC2=O)c2ccccc21               4.92 µM

* * *

- Tested on: IGROV1 ovarian
- assay-details: NCI tumour cell line growth inhibition, 48 h
TGI overview
measurement-kind: TGI

molecule	measurement-kind	reported-measurement
COC(=O)C([C@H]1CC[C@H](OCc2ccccc2)[C@@]1(O)COCc1ccccc1)C(C)(O)CCc1ccccc1 (some centres undefined)	TGI	29.3 µM
SCCCSCCSCCCSCCS	TGI	> 100 µM
O=C1C(c2ccccc2)=[N+]([O-])c2cc([N+](=O)[O-])c(/C(Cl)=C/c3ccccc3)cc21	TGI	57.5 µM
COc1cc(-c2nn(-c3ccc(NC(=O)NCCCNC(=O)c4ccccc4)cc3)cc2-c2ccncc2)ccc1Cl	TGI	> 100 µM
O=[N+]([O-])c1cccc(-c2ncnc(-c3cccc([N+](=O)[O-])c3)n2)c1	TGI	> 100 µM
Cc1cc(C)nc(NS(=O)(=O)c2ccc(NC(=O)c3ccc(Cl)c4c(Nc5ccc(S(=O)(=O)Nc6cc(C)on6)cc5)c5ccccc5nc34)cc2)n1	TGI	37.3 µM
COC1=C(OC)C23CCc4ccc(OC)c(O)c4C2(CCN3)CC1=O (centres undefined)	TGI	> 100 µM
Oc1ccc2c(c1)OCC1c3ccccc3OC21 (centres undefined)	TGI	> 100 µM
COc1ccccc1-c1cc(=O)c2ccccc2n1C1CC1	TGI	44 µM
C=CCCC1CCCCC/C1=N\N(C)C (centres undefined)	TGI	> 100 µM
Cn1c2ccccc2c2ccc3c(c21)C(=O)C=CC3=O	TGI	29.9 µM
CC(C)(C)N/N=C(\C(=O)Nc1ccc([N+](=O)[O-])cc1[N+](=O)[O-])c1nc2ccc([N+](=O)[O-])cc2[nH]c1=O	TGI	> 100 µM
CO/C(N)=C(\C#N)N=Cc1cccnc1	TGI	> 100 µM
COc1cc2c(c(OC)c1OC)-c1ccc(SC)c(=O)cc1[C@@H](OC(=O)c1ccncc1)CC2	TGI	> 46.8 µM
COc1cc2oc(-c3ccc4c(c3)OCO4)c(OC)c(=O)c2c(OC)c1OC	TGI	> 100 µM
Nc1ncnc2nc(N3CCN(CCO)CC3)[nH]c12	TGI	> 100 µM
O=C(CNc1c(Cl)cccc1Cl)Nc1ccc(-c2nc3ccccc3s2)cc1	TGI	5.85 µM
O=C(c1ccccc1)c1nc2ccc(Cl)cc2c2c1Cc1ccccc1-2	TGI	> 100 µM
CC(=O)NC1=C(C)C(=O)c2c(nc3n2CCC3OC(=O)CCl)C1=O (centres undefined)	TGI	25.2 µM
COc1cc2c(cc1OCCCCCN1CCN(c3cc(=O)oc4ccccc34)CC1)N=C[C@@H]1CCCN1C2=O	TGI	0.401 µM
Clc1ccc(C2=NOC(C3CCCCC3)C2)cc1 (centres undefined)	TGI	> 100 µM
CCC[CH2][Sn]([CH2]CCC)([O]C(=O)c1ccc(C)c(N)c1)[O]C(=O)c1ccc(C)c(N)c1	TGI	2.42 µM
O=C1CCC(c2nc3cc(Cl)ccc3o2)C(=O)N1 (centres undefined)	TGI	> 100 µM
CC(C)(C)OC(=O)NCCCCCCC(=O)Cc1ccccc1	TGI	> 100 µM
O=C(O)COc1cc(-c2ccccc2)nc2ccc(F)cc12	TGI	> 100 µM
COc1ccc(CN2C(=O)C(Cl)=C(Nc3cccc(O)c3)C2=O)cc1	TGI	15.2 µM
CN(C)CCNC(=O)c1cc([N+](=O)[O-])cn1C	TGI	> 100 µM
COc1cc(OC)cc(C2C(C#N)=C(N)Oc3c2ccc2ccc(O)cc32)c1 (centres undefined)	TGI	6.61 µM
CCOc1ccc2nc3cc(N=Nc4ccc(N)nc4N)ccc3c(N)c2c1	TGI	> 69.6 µM
COC1/C=C/C(C)C(OC)CC(O)/C=C/C(C)C(C(C)C(OC)C(C)CCC(=O)C(C)C(C/C=C/N(C)C=O)OC)OC(=O)/C=C/C=C(\C)CC(OC)CC2=CC(=O)O[C@@H](C(C)C(OC)C1)[C@H]2O (some centres undefined)	TGI	0.423 µM
CN(C)CCCNC(=O)N/N=C\c1cccc2ccccc12	TGI	> 10 µM
CCCCOC(=O)NC(c1ccccc1)C(O)C(=O)OC1C[C@@]2(O)C(OC(=O)c3ccccc3)C3[C@](C)(C(=O)[C@H](OC(C)=O)C(=C1C)C2(C)C)[C@@H](O)C[C@H]1OC[C@@]31OC(C)=O (some centres undefined)	TGI	> 10 µM
COc1cc(NC(=O)c2ccc(C(F)(F)F)nc2Nc2ccc(Cl)cc2C)cc(OC)c1OC	TGI	23 µM
[N-]=[N+]=NCCCn1c2c(c3ccccc3c1=O)C(=O)c1cc(Br)ccc1-2	TGI	> 100 µM
